Reference source for all entries: the NIST ThermoML archive (doi:10.1021/je400849a)

Assignment: determine reported mass density for the given compounds.
# details: 323.15 K; 101.33 kPa; Liquid; Vibrating tube method
Dear colleague, please return just the value in kg/m3, with no unit written.

// mass density lookup, key: CCCCCCCCCCn1cc[n+](CCC#N)c1.O=C([O-])c1cccc(S(=O)(=O)O)c1 [3-(2-cyanoethyl)-1-decylimidazolium 3-sulfobenzoate]
1116.2

// mass density lookup, key: CCCCn1cc[n+](CCC#N)c1.O=S(=O)([O-])c1ccccc1 [1-butyl-3-(2-cyanoethyl)-1H-imidazolium benzenesulfonate]
1220.3

// mass density lookup, key: CCCCCCCCCCCCOS(=O)(=O)[O-].CCCCCCCCCCn1cc[n+](CCC#N)c1 [3-(2-cyanoethyl)-1-decylimidazolium dodecylsulfate]
1036.1

// mass density lookup, key: CCCCCCCCCCCCOS(=O)(=O)[O-].CCCCn1cc[n+](CCC#N)c1 [1-butyl-3-(2-cyanoethyl)-1H-imidazol-3-ium dodecyl sulfate]
1105
